Origin of measurements: PubChem BioAssay (NCI)

System: HCT-116 colon
EXPERIMENT DESCRIPTION: NCI tumour cell line growth inhibition, 48 h
MEASUREMENT NAME: GI50

These solved cases illustrate the format of a correct answer.
stdin: Please report GI50 for the following molecule: O=C1/C(=C/c2ccc(C(F)(F)F)cc2)COc2ccc(O)cc21
stdout: 1.77 µM

stdin: Find the measured GI50 of O=C1C(Nc2cccc(O)c2)=C(Sc2ccc(Cl)cc2)C(=O)N1Cc1ccccc1 and report it.
stdout: 5.45 µM

Here's the next entry for you.
stdin: Read off the recorded GI50 for COc1ccc(Cn2cc3c(c2-c2ccccc2)CCc2cncnc2-3)cc1
stdout: 3.65 µM

---

System: XF 498 CNS
EXPERIMENT DESCRIPTION: NCI tumour cell line growth inhibition, 48 h
Each record here notes measured TGI.

stdin: Write down the reported TGI (system: XF 498 CNS) of COc1cc(C(=C2SCCS2)c2nccc3cc(OC)c(OC)cc23)c([N+](=O)[O-])cc1OC
stdout: > 100 µM

stdin: Give TGI for this entry on XF 498 CNS: Cn1c(=O)c2[nH]cnc2n(CC(=O)O)c1=O
stdout: > 100 µM

Consider the record given below.
stdin: Write down the reported TGI (system: XF 498 CNS) of COC(=O)NN=C1C(C)(C)C(=NNC(=O)OC)C1(C)C
stdout: > 100 µM

---

System: LOX IMVI melanoma
EXPERIMENT DESCRIPTION: NCI tumour cell line growth inhibition, 48 h
Recorded measurements of TGI, one per entry

Recorded results for 4 compounds are shown here.
stdin: Please list TGI recorded for the compound COC(=O)C1=C2CO[C@@H]3C[C@H]4C(C)(C)CCC[C@]4(C)C(=CC1)[C@]23C
stdout: > 100 µM

stdin: Read the entry COC(=O)NN=C1C(C)(C)C(=NNC(=O)OC)C1(C)C and write its reported TGI.
stdout: > 50.9 µM

stdin: Supply measured TGI of Cc1cc(Cl)ccc1Nc1nc(C(F)(F)F)ccc1C(=O)N/N=C/c1ccc(N(C)C)cc1 in your reply.
stdout: > 100 µM

stdin: Supply recorded TGI for COc1ccc(CC(C#N)c2cc(OC)c(OC)c(OC)c2)cc1 (stereo not given) here.
stdout: > 100 µM

---
stdin: Please report the measured TGI for COC(=O)C(Cc1ccccc1)NC(=O)C(CCCN=C(N)N)NC(=O)OCc1ccccc1 (stereo not given)
stdout: > 100 µM

---

Reported values of TGI for individual entries
System: MCF7 breast
EXPERIMENT DESCRIPTION: NCI tumour cell line growth inhibition, 48 h

Sample answers from the record:
stdin: State its TGI: CCCCCCCCCCOC1C(C(C)OCCCN(C)C)OC2OC3(CCCCC3)OC21 (stereo not drawn)
stdout: 42.8 µM

stdin: Return TGI for the following compound: CC(C)c1ccc(O)c(O)c(=O)c1 (tested in a mixture with another compound)
stdout: > 100 µM

---
stdin: Supply reported TGI belonging to this compound: S=C1NC2=C(COC/C2=C\c2ccccc2Cl)C(c2ccccc2Cl)N1 (stereo not drawn)
stdout: 63.1 µM

stdin: Answer with reported TGI of CCOC(=O)CCc1c(C)c2c(O)cc(O)cc2oc1=O
stdout: > 100 µM

stdin: Specify measured TGI for Cc1ccc(C(=O)/C=C/N2CCN(c3cccc(C(F)(F)F)c3)CC2)cc1 .
stdout: 34 µM

stdin: Tell me measured TGI for Cc1cc(O)c(/C=N/C(=O)NN)c(=O)o1 please.
stdout: > 100 µM

stdin: # return recorded TGI for input C[n+]1c(-c2ccc(/C=N/Nc3n[nH]c(=S)n3N/N=C/c3ccc(-c4cn5ccccc5[n+]4C)cc3)cc2)cn2ccccc21
stdout: > 100 µM

stdin: Supply measured TGI of c1cc(C2N3CCCN2CC3)ccn1 (stereo not drawn) in your reply.
stdout: > 100 µM

stdin: Dear colleague, please send me the reported TGI for CN(C)Cc1cc(C(=O)/C=C/c2c(F)cccc2Cl)cc(CN(C)C)c1O when you can.
stdout: 20.2 µM

stdin: Give the reported value of TGI for this record: COC(=O)Nc1nc2ccc(NS(=O)(=O)c3ccc(F)cc3)cc2[nH]1
stdout: > 100 µM

stdin: Provide one value: measured TGI of N/C(=N\N=C/c1cc(Cl)cc(Cl)c1O)NO
stdout: 10.3 µM

stdin: Provide only the value of recorded TGI for COc1ccc(CCN2CCOCC2)cc1
stdout: > 100 µM

stdin: Identify TGI associated with the compound Cc1cccc2cc3ccc4ccccc4c3cc12
stdout: 98 µM
